Give Tm for every item shown.
Assay: melting temperature; fluorescence melt of hairpins on a sequencing array, two-state fit, raised by 9.35 °C to match UV melts
Settings: sodium 0.088 M
Answers are plain numbers, in °C.

Example entries and their recorded answers appear below.
# BIOSEQUENCE, UOM, VALUE_OBSERVED
rows = [
    ("GCTGAAGGAAACTTTAGC (((.(((....))).)))", "°C", 41.5),
    ("GTGGGGCGAAAGCCTCAC (((.(((....))).)))", "°C", 67.6),
    ("GGGAACGAAAGTTCCCCC ((((((....)))..)))", "°C", 68.4),
    ("GACCGACCGAAAGGTGTC (((..(((....))))))", "°C", 35.9),
    ("GAAGTTGGAAACAACCTC ((.((((....)))).))", "°C", 27.4),
]

Proceeding to the next sequence to report its Tm.
Tm reported for this sequence GATCATCAGTATGATC ((((((....)))))) : 45.8

====

Experiment: melting temperature; fluorescence melt of hairpins on a sequencing array, two-state fit, raised by 9.35 °C to match UV melts
Details: sodium 0.088 M
Give Tm for every item shown.
Numbers only, in °C.

# BIOSEQUENCE, Tm [°C]
records = [
    ("CGGGACCGGAAACGGCCG (((..(((....))))))", 48.5),
]

Hi, could you look up Tm for each item in my list?
1. GATTGCGGAAACGCAATC (((((((....)))))))
2. GTGCCCGAAAGGGTCAC ((((((....))).)))
3. GTCGCTGGAAACAGTGGC (.(.(((....))).).)
4. GATCGCTGGTGCGATC ((((((....))))))
5. GCCGAGCGAAAGCCTGGC (((..((....))..)))

1: 67.9; 2: 55; 3: 45.4; 4: 68.6; 5: 62.6

====

Give Tm for every item shown.
Experiment: melting temperature; fluorescence melt of hairpins on a sequencing array, two-state fit, raised by 9.35 °C to match UV melts
Conditions: sodium 0.088 M
Answers are plain numbers, in °C.

Example entries and their recorded answers appear below.
# BIOSEQUENCE, VALUE_TYPE, VALUE_OBSERVED
rows = [
    ("GTCTGAGAAATCAGAC ((((((....))))))", "Tm", 52.4),
    ("GAGATACCGAAAGGTCTC (((..(((....))))))", "Tm", 34.3),
    ("GCAGCAACGAAAGTTTGC (((..(((....))))))", "Tm", 35.8),
    ("GGCTCCGGAAACGGGGTC (.(.(((....))).).)", "Tm", 49),
    ("GGAGTGGGAAACCGTTCC (((..((....))..)))", "Tm", 32.3),
    ("GCTCGCGAAAGCGAGAGC ((((((....)))..)))", "Tm", 66.7),
    ("GATCACATGGGTGATC ((((((....))))))", "Tm", 56.4),
    ("GGACTAGGAAACTAGTTC (.(((((....))))).)", "Tm", 41.3),
    ("GGAGCCGAAAGGCCATCC ((((((....)))..)))", "Tm", 31.6),
    ("GCCTCCACGAAAGTGGGC (((..(((....))))))", "Tm", 46.9),
]

Hi, could you look up Tm for each item in my list?
1. GTCAGCGCGAAAGCGGAC (((..(((....))))))
2. GTCCCCGAAAGGGCGAC ((((((....))).)))

46.6
52.7

Hi, could you look up Tm for each item in my list?
1. GGGATCGAAAGATGGCCC ((((((....)))..)))
2. GTGACTCGAAAGAGCAC (((.(((....))))))
3. GGGCCAACGAAAGTTCCC (((..(((....))))))
4. GATCCCATCTGGGATC ((((((....))))))
5. GCACGCGGAAACGCGCGC ((.((((....)))).))
6. GATTGCGAAAGCATCATC ((((((....)))..)))
7. GTTGTGTCGAAAGACAAC (((..(((....))))))
8. GTAGCTCCGAAAGGATAC (((..(((....))))))

33.5
48.1
30.4
62.6
68.5
29.6
51.1
25.4

====

Test: folding enthalpy; higher = less favourable; fluorescence melt of hairpins on a sequencing array, two-state fit
Conditions: sodium 0.088 M
# cutoff -20 kcal/mol applies to folding enthalpy; >= gives criterion met, < gives criterion not met

Here are 2 sequences together with their reported answers.
# BIOSEQUENCE, LABEL
rows = [
    ("GTGTCCGGAAACGGACGC (.(((((....))))).)", "criterion met"),
    ("GATCGACCCGTCGATC ((((((....))))))", "criterion not met"),
]

Exam item: decide whether the reported folding enthalpy for GTCGAAGGAAACCTCGAC (((((.(....).))))) is at least -20 kcal/mol. criterion not met

Exam item: decide whether the reported folding enthalpy for GATTACGAAAGTAAGATC ((((((....)))..))) is at least -20 kcal/mol. criterion met

Exam item: decide whether the reported folding enthalpy for GTAGGTGGAAACATCTGC (.((.((....)).)).) is at least -20 kcal/mol. criterion met

Exam item: decide whether the reported folding enthalpy for GAACGCGGAAACACGTTC (((((.(....).))))) is at least -20 kcal/mol. criterion not met

====

Assay: folding enthalpy; higher = less favourable; fluorescence melt of hairpins on a sequencing array, two-state fit
Settings: sodium 0.088 M
Give folding enthalpy for every item shown.
Numbers only, in kcal/mol.

Hi, could you look up folding enthalpy for each item in my list?
1. GTTGGGGGAAACCCTAGC (.(.(((....))).).)
2. GTACGGGGAAACCCGCAC ((.((((....)))).))
3. GTAGATCGAAAGATTTAC (((.(((....))).)))
4. GCCCTACGAAAGTACGGC (((.(((....))).)))
5. CGTCTACGGAAACGTACG (((..(((....))))))
6. GTTTGCGAAAGCAAGAAC ((((((....)))..)))

[-9.75, -18.6, -30.4, -27.3, -11.6, -10]

====

Assay: melting temperature; fluorescence melt of hairpins on a sequencing array, two-state fit, raised by 9.35 °C to match UV melts
Details: sodium 0.088 M
Category scheme (Tm): group A (below 40 °C), group B (40 °C to below 60 °C), group C (60 °C or more)

# BIOSEQUENCE, LABEL
rows = [
    ("GAGCCCGGAAACGGGTTC ((.((((....)))).))", "group B"),
    ("GATCGTCATAACGATC ((((((....))))))", "group B"),
]

Into which category would you place GAGTTGAAAAACTC (((((....))))) ? group B

Into which category would you place GCGGTTGGAAACAGCTGC ((.(.((....)).).)) ? group B

====

Assay: melting temperature; fluorescence melt of hairpins on a sequencing array, two-state fit, raised by 9.35 °C to match UV melts
Details: sodium 0.088 M
Give Tm for every item shown.

Example entries and their recorded answers appear below.
# BIOSEQUENCE, Tm
rows = [
    ("GCCGGGCGAAAGCACTGC ((.(.((....)).).))", "50.8 °C"),
    ("GCACGTGGAAACACGTAC (.(((((....))))).)", "44.1 °C"),
    ("GGTGTCCGAAAGGAAACC (((.(((....))).)))", "52.7 °C"),
]

Hi, could you look up Tm for each item in my list?
1. GTCAACGAAAGTTGAGAC ((((((....)))..)))
2. GATCGATAGTCGATC ((((((...))))))
3. GCTTCCGAAAGGACCAGC ((((((....)))..)))
4. GATCGTGTTTACGATC ((((((....))))))
5. GCCCTCGAAAGAGAGGGC ((((((....)))..)))

1. 43.3 °C
2. 48.7 °C
3. 31.2 °C
4. 57.5 °C
5. 59.9 °C

====

Assay: folding enthalpy; higher = less favourable; fluorescence melt of hairpins on a sequencing array, two-state fit
Settings: sodium 0.088 M
Give folding enthalpy for every item shown.
Answers are plain numbers, in kcal/mol.

Example entries and their recorded answers appear below.
# BIOSEQUENCE, folding enthalpy [kcal/mol]
measured = [
    ("GGCTTTGGAAACAGAGCC ((((.((....)).))))", -35.3),
    ("CGTTAACGGAAACGTACG (((..(((....))))))", -17.6),
    ("GGATACTCGAAAGAGTCC (((..(((....))))))", -11.7),
    ("GTTGACGAAAGTCACAAC ((((((....)))..)))", -9.62),
    ("GCGGATCGCCGC ((((....))))", -19.9),
    ("CGGGCGGAAACGCACCG ((((((....))).)))", -16.9),
    ("GCAGTACCGAAAGGTTGC (((..(((....))))))", -20.4),
    ("GTATCCGGAAACGGATAC (((((((....)))))))", -36.6),
    ("GTGATCCGAAAGGAGCAC (((.(((....))).)))", -41.5),
    ("GATCACCGAGGTGATC ((((((....))))))", -46.8),
]

Hi, could you look up folding enthalpy for each item in my list?
1. GCTGAAACGAAAGTTAGC (((..(((....))))))
2. GTTATACCGAAAGGTAAC (((..(((....))))))
3. GCCTTCGAAAGAATCGGC ((((((....)))..)))
4. CGTTCGGAAACGAGCACG ((((((....)))..)))
5. GCCATCGCGAAAGCGGGC (((..(((....))))))
6. GATCCACACATGGATC ((((((....))))))
7. GATCGACTCCTCGATC ((((((....))))))
8. GATCAATCACTTGATC ((((((....))))))

1: -20.6; 2: -10.4; 3: -23.4; 4: -13.2; 5: -17.4; 6: -40; 7: -38.6; 8: -29.9

Hi, could you look up folding enthalpy for each item in my list?
1. GCTGCCGAAAGGCAGAGC ((((((....)))..)))
2. CCAGAGAAATCTGG (((((....)))))
3. GCAACTACGAAAGTATGC (((..(((....))))))
4. GCTGTCGAAAGACGAGC ((((((....))).)))
5. GACCAGGGAAACTTGGTC (((((.(....).)))))
6. GGCTGAACGAAAGTTGCC (((..(((....))))))

[-10, -19.2, -16.5, -25.6, -37.8, -24.6]

folding enthalpy reported for this sequence GTCGCGGGAAACTGCGGC (.(((.(....).))).) : -27.1
